# assay explanation: self-splicing fitness, log relative to wild type (ln ratio); higher = more splicing; Tetrahymena group I intron in knt gene, E. coli kanamycin selection, DiMSum; sequences stand for … in CUCUCU…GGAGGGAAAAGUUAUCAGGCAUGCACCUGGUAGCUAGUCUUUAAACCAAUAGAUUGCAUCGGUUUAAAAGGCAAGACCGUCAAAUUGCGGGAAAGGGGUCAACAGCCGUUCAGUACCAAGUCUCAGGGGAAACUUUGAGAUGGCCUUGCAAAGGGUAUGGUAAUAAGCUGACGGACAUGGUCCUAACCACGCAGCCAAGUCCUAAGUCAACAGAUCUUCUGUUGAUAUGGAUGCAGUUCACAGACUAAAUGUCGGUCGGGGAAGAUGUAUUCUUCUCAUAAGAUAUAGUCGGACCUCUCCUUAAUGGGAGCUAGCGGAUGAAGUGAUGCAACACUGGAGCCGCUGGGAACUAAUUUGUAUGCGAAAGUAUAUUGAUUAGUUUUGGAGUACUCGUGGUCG;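 further: selection with 25 µg/mL kanamycin versus none on LB agar overnight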
# stated conditions: 37 °C
Please enter met where self-splicing fitness (ln) is greater than or equal to -2, and not met where it is lower.

{"seq string": "UUUAAGCAAUAUUACGGCCA", "category": "met"}
{"seq string": "UAUAAGCAAUAUUACGUCCA", "category": "met"}
{"seq string": "CCAGAGCAAUAUUACGUGUA", "category": "not met"}
{"seq string": "CGCCAGCAAUAUUACGCGGC", "category": "not met"}
{"seq string": "UAACAGCAAUAUUACGCGUC", "category": "not met"}
{"seq string": "AUUCAGCAAUAUUACGUGGG", "category": "met"}
{"seq string": "GCAUAGCAAUAUUACGCAAA", "category": "met"}
{"seq string": "GGCUAGCAAUAUUACGGUCC", "category": "not met"}
{"seq string": "AUAUAGCAAUAUUACGUAUG", "category": "met"}
{"seq string": "CACAAGCAAUAUUACGCUCU", "category": "met"}
{"seq string": "CGAUAGCAAUAUUACGGGUA", "category": "not met"}
{"seq string": "CGACAGCAAUAUUACGACAA", "category": "met"}
{"seq string": "GGACAGCAAUAUUACGUAGG", "category": "met"}
{"seq string": "CUCCAGCAAUAUUACGUAGA", "category": "not met"}
{"seq string": "CUCAAGCAAUAUUACGUCGA", "category": "met"}
{"seq string": "GACCAGCAAUAUUACGUAAC", "category": "met"}
{"seq string": "AAACAGCAAUAUUACGGCAU", "category": "met"}
{"seq string": "UAUAAGCAAUAUUACGAUGA", "category": "met"}
{"seq string": "ACGAAGCAAUAUUACGGGAC", "category": "not met"}
{"seq string": "GCGCAGCAAUAUUACGCUGG", "category": "not met"}
{"seq string": "AUCAAGCAAUAUUACGUUGG", "category": "not met"}
{"seq string": "AUAUAGCAAUAUUACGGAGC", "category": "not met"}
{"seq string": "AUAUAGCAAUAUUACGGUUG", "category": "not met"}
{"seq string": "AGUCAGCAAUAUUACGUCGA", "category": "met"}
{"seq string": "CUGGAGCAAUAUUACGGAUU", "category": "not met"}
{"seq string": "AGAUAGCAAUAUUACGACAA", "category": "met"}
{"seq string": "CAUUAGCAAUAUUACGUAUG", "category": "not met"}
{"seq string": "AAGAAGCAAUAUUACGCGUU", "category": "met"}
{"seq string": "GAGUAGCAAUAUUACGCCGA", "category": "met"}
{"seq string": "ACGAAGCAAUAUUACGGACA", "category": "met"}
{"seq string": "GAAAAGCAAUAUUACGGACC", "category": "met"}
{"seq string": "AUCGAGCAAUAUUACGUACA", "category": "met"}
{"seq string": "UCACAGCAAUAUUACGGGAC", "category": "met"}
{"seq string": "GAUGAGCAAUAUUACGUUGA", "category": "met"}
{"seq string": "UCUUAGCAAUAUUACGUCCG", "category": "met"}
{"seq string": "CUAGAGCAAUAUUACGCGCU", "category": "not met"}
{"seq string": "UCCAAGCAAUAUUACGGAAG", "category": "met"}
{"seq string": "GUUUAGCAAUAUUACGAGAC", "category": "not met"}
{"seq string": "CCACAGCAAUAUUACGCCCC", "category": "not met"}
{"seq string": "ACAAAGCAAUAUUACGGGGC", "category": "not met"}
{"seq string": "AAGCAGCAAUAUUACGUUUA", "category": "met"}
{"seq string": "GAGGAGCAAUAUUACGUAAC", "category": "not met"}
{"seq string": "GGCUAGCAAUAUUACGCUUU", "category": "met"}
{"seq string": "CCACAGCAAUAUUACGCAUU", "category": "not met"}
{"seq string": "UUAUAGCAAUAUUACGCGCU", "category": "met"}
{"seq string": "GUCAAGCAAUAUUACGUGAC", "category": "not met"}
{"seq string": "GGUCAGCAAUAUUACGUAGA", "category": "met"}
{"seq string": "AGGAAGCAAUAUUACGAAUU", "category": "met"}
{"seq string": "AAACAGCAAUAUUACGUCAG", "category": "not met"}
{"seq string": "CCUCAGCAAUAUUACGGUGA", "category": "not met"}
{"seq string": "UCUUAGCAAUAUUACGUUAG", "category": "met"}
{"seq string": "UCUAAGCAAUAUUACGGGCC", "category": "not met"}
{"seq string": "GACCAGCAAUAUUACGUAUC", "category": "met"}
{"seq string": "AUACAGCAAUAUUACGAAGG", "category": "not met"}

Source listed as the supplement of paper PMC7877785.
